I'd be grateful if you could share measured GI50 for these entries.
Tested on: PC-3
Experiment: NCI tumour cell line growth inhibition, 48 h
Calls of active or inactive are those of the source. Cut-off read from the data, not from the text of the source: active = GI50 up to about 1.1 µM and inactive = higher.

Some solved cases for reference:
{"Compound": "O=C(N/N=C\\c1ccc(Cl)cc1)Nc1cccc2ccccc12", "GI50": "5.97 µM (inactive)"}
{"Compound": "COc1ccccc1C1(c2c(OC(C)C)c(=O)c2=O)SCCCS1", "GI50": "> 100 µM (inactive)"}
{"Compound": "O=c1c(C(c2ccco2)c2c(O)oc3ccccc3c2=O)c(O)oc2ccccc12", "GI50": "> 100 µM (inactive)"}
{"Compound": "O=C1C(c2c(O)[nH]c3ccc(Br)cc23)=Nc2ccc(Br)cc21", "GI50": "51.3 µM (inactive)"}

Provide GI50 values for the following items, in order.
1. COC(=O)c1ccc(-c2nc(C#N)c(N)o2)cc1
2. COc1ccc(C2C3=C(COC3=O)OC(C)(C)Oc3cc4c(cc32)OCO4)cc1 (stereo not given)
3. O=[N+]([O-])c1ccc(OCc2nnc(CCCCCCCCc3nnc(COc4ccc([N+](=O)[O-])cc4)o3)o2)cc1
4. CCCCCCCCCCCCCC(=O)OC(/C=C/C(C)C)C(O)C(O)C(OC)C(=O)NC1CCCCNC1=O (stereo not given)
5. COc1ccc(C2CC(=O)Oc3ccccc3O2)cc1 (stereo not given)
6. COc1cc(Nc2nc3ccccc3nc2C(C)C)cc(OC)c1OC

Data returned:
> 100 µM (inactive)
15.1 µM (inactive)
> 100 µM (inactive)
> 10 µM (inactive)
> 100 µM (inactive)
> 100 µM (inactive)

====

Tested on: SF-268
Test: NCI tumour cell line growth inhibition, 48 h
Calls of active or inactive are those of the source. No stated cut-off is given here; in the data, active = GI50 up to about 1.1 µM and inactive = higher.
I'd be grateful if you could share measured GI50 for these entries.

{"Query smiles": "COc1cc(/C=C2\\C[C@H]3[C@@H]4CC=C5C[C@@H](N6CCCC6)CC[C@]5(C)[C@H]4CC[C@]3(C)[C@H]2O)cc(OC)c1OC", "Measured target": "SF-268", "GI50": "3.28 µM (inactive)"}
{"Query smiles": "Cn1c(=O)c(-c2ccccc2)c(N=[N+]=[N-])c2ccccc21", "Measured target": "SF-268", "GI50": "39.5 µM (inactive)"}
{"Query smiles": "N#C/N=C1\\NCCC(=O)N1CCc1c[nH]c2ccccc12", "Measured target": "SF-268", "GI50": "> 100 µM (inactive)"}
{"Query smiles": "C1CSCCSCSCCS1", "Measured target": "SF-268", "GI50": "> 100 µM (inactive)"}

Shift focus to the following entry.
Form: compound = Cc1ccc(-c2cn3c(nc4ccccc43)c(-c3ccccc3)n2)cc1 ; GI50 = > 45.3 µM (inactive)

====

System: NCI/ADR-RES
Assay: NCI tumour cell line growth inhibition, 48 h
The source made the active and inactive calls. Cut-off read from the data, not from the text of the source: active = GI50 up to about 1.1 µM and inactive = higher.
// allowed return values: Y for active, N for inactive

{"Compound": "CCOC(=O)/C=C(/C(=O)OCC)n1ccc(=O)n(/C(=C/C(=O)OCC)C(=O)OCC)c1=O", "Assigned category": "N"}
{"Compound": "Cc1cccc(CC(Cc2ccc(C)cc2C(=O)O)C(=O)O)c1 (stereo unspecified)", "Assigned category": "N"}
{"Compound": "COC(=O)CCN1CCN(CCO)CC1C (stereo unspecified)", "Assigned category": "N"}
{"Compound": "c1ccc(C2(c3ccccc3)S/C(=C3/SC(c4ccccc4)(c4ccccc4)c4ccccc43)c3ccccc32)cc1", "Assigned category": "N"}
{"Compound": "CC12CC(c3ccccc3O1)C(C(=O)Nc1ccc(Cl)cc1Cl)C(=O)N2 (stereo unspecified)", "Assigned category": "N"}

Data request: State the result this test recorded for COc1cc(N(C)C)c(OC)cc1C=C1C=CC=C1 .
Data returned: N

Data request: State the result this test recorded for NC(=S)N/N=C/c1ncccc1N .
Data returned: N

Data request: State the result this test recorded for COc1nncc2[nH]c(-c3ccccc3)cc12 .
Data returned: N

Data request: State the result this test recorded for N#CCN1c2ccccc2CCC1Cl (stereo unspecified) .
Data returned: N

Data request: State the result this test recorded for CCOC(=O)C1(O)C(=O)C2=C3C(=O)OC(C4OC(=O)c5c(c(O)c(O)c(O)c5C31)-c1c(cc(O)c(O)c1O)C(=O)OC1COC(=O)c3cc(O)c(O)c(O)c3-c3c(cc(O)c(O)c3O)C(=O)OC14)[C@@H]2O (stereo partly specified) .
Data returned: N

====

I'd be grateful if you could share measured GI50 for these entries.
Test system: NCI-H226
Experiment: NCI tumour cell line growth inhibition, 48 h
Active and inactive are the calls of the source. No stated cut-off is given here; in the data, active = GI50 up to about 1.1 µM and inactive = higher.

{"Molecule": "COc1ccc(CCN2COc3ccc4ccc(=O)oc4c3C2)cc1OC", "GI50": "> 100 µM (inactive)"}
{"Molecule": "Nc1nc(Cl)nc(NCc2ccccc2)n1", "GI50": "> 100 µM (inactive)"}
{"Molecule": "O=S(=O)(c1ccccc1)n1cnc(CCc2ccccc2)n1", "GI50": "> 100 µM (inactive)"}
{"Molecule": "C=C(C)[C@@H]1CC[C@]2(CO)CC[C@]3(C)[C@H](CC[C@@H]4[C@@]5(C)CC[C@H](O)C(C)(C)[C@@H]5CC[C@]43C)[C@@H]12 [BETULIN]", "GI50": "39 µM (inactive)"}

Provide GI50 values for the following items, in order.
1. COc1ccc2oc3c(C)cc4c(OC)nnc(OC)c4c3c2c1
2. COc1ccc2c(c1)-c1[nH]c3ccccc3c1CC2
3. O=S1(=O)OCCCOS(=O)(=O)C1(Br)Br
4. COc1ccc(C(=O)CC(c2ccccc2)[C@H]2C(c3ccc(OC)cc3)=Nc3c(nc(SC)n(C)c3=O)NC2c2ccccc2)cc1 (some centres undefined)

Data returned:
["30.8 µM (inactive)", "13.3 µM (inactive)", "> 100 µM (inactive)", "> 100 µM (inactive)"]

Form: molecule = CC(=O)NC1C(OCc2ccccc2)OC(COC(=O)CCCCCCCCCCNC(=O)c2cccc3c(=O)c4ccccc4[nH]c23)C(O)C1OC(C)C(=O)NC(C)C(=O)NC(CCC(N)=O)C(N)=O (centres undefined) ; GI50 = 38.7 µM (inactive)

====

System: SN12C
Assay: NCI tumour cell line growth inhibition, 48 h
Activity calls are given as the source filed them. No stated cut-off is given here; in the data, active = GI50 up to about 1.1 µM and inactive = higher.
I'd be grateful if you could share measured GI50 for these entries.

Some solved cases for reference:
{"Molecule": "OC(CC(O)(C(F)(F)Cl)C(F)(F)Cl)c1ccccc1 (centres undefined)", "GI50": "> 10 µM (inactive)"}
{"Molecule": "CCOC(=O)Nc1ccc2c(c1)c(CCCCCCc1nc3ccccc3c3ccc(NC(=O)OCC)cc13)nc1ccccc12", "GI50": "40.6 µM (inactive)"}
{"Molecule": "COC1(CC[C@@H](C)COC2OC(CO)C(O)C(O)C2O)O[C@H]2C[C@H]3[C@@H]4CC=C5C[C@@H](OC6OC(CO)C(O)C(OC7OC(CO)C(O)C(O)C7O)C6OC6OC(C)C(O)C(O)C6O)CC[C@]5(C)[C@H]4CC[C@]3(C)[C@H]2[C@@H]1C (some centres undefined)", "GI50": "10.2 µM (inactive)"}

Provide GI50 values for the following items, in order.
1. C/C(=N/NC(=S)N1CCCCC1)c1ccccc1O
2. C[C@@H](CO)C1=CC(C#C[Si](C)(C)C)N(C(=O)Oc2ccccc2)c2ccccc21 (some centres undefined)
3. [N-]=[N+]=NC1C(Br)C(=O)NC(=O)N1[C@H]1C[C@H](O)[C@@H](CO)O1 (some centres undefined)
4. CC1CSc2nc3nc(S)nc-3c(O)n2C1 (centres undefined)
5. COc1ccc(-c2nc3ccc([N+](=O)[O-])cc3c(=O)[nH]2)cc1

Data returned:
1: > 31.6 µM (inactive); 2: 16.8 µM (inactive); 3: > 100 µM (inactive); 4: > 100 µM (inactive); 5: 66.4 µM (inactive)

====

I'd be grateful if you could share measured GI50 for these entries.
Test system: SW-620
Test: NCI tumour cell line growth inhibition, 48 h
Activity calls are given as the source filed them. Cut-off read from the data, not from the text of the source: active = GI50 up to about 1.1 µM and inactive = higher.

Some solved cases for reference:
{"Compound": "c1cc(-c2ccc(-c3nc4ccc(C5=NCCN5)cc4s3)s2)ccc1C1=NCCN1", "Recorded result": "1.02 µM (active)"}
{"Compound": "O=c1cc2ccccc2nn1-c1ccccc1Cl", "Recorded result": "> 100 µM (inactive)"}
{"Compound": "O=C(OC1CCC2OOC1O2)c1ccc([N+](=O)[O-])cc1 (stereo not drawn)", "Recorded result": "> 100 µM (inactive)"}

Provide GI50 values for the following items, in order.
1. Cn1c(N/N=C/c2ccccc2)nc(-c2ccc([N+](=O)[O-])cc2)c(C#N)c1=O
2. CCOC(=O)Nc1ccc2c(c1)c(CCCCCCc1nc3ccccc3c3ccc(NC(=O)OCC)cc13)nc1ccccc12

Data returned:
["65.8 µM (inactive)", "> 100 µM (inactive)"]

Provide GI50 values for the following items, in order.
1. Cc1cc2c(cc1C)[n+]([O-])c(C#N)c(Cl)[n+]2[O-]
2. O=C(CON1C(=O)c2ccccc2C1=O)c1ccccc1
3. CC(C)=CC(=O)N(C)C1C2CN3CCC(O2)C13 (stereo not drawn)
4. CCCCOC(=O)NC(=O)c1cn(C2CCCCC2)c(=O)[nH]c1=O
5. CCNC(=S)/N=c1\sc(NCC)nc2sc3c(c12)CCN(N1CCc2c(sc4nc(NCC)s/c(=N\C(=S)NCC)c24)C1)C3
6. COc1ccc2nc3ccccc3c(NCCCCCN(CCCl)CCCl)c2c1
7. O=C(CSc1nnc(-c2ccc(/N=C\c3ccc(Cl)cc3)cc2)o1)Nc1ccc(Cl)cc1
8. COc1nncc2[nH]c(-c3ccccc3)cc12

Data returned:
1: 11.7 µM (inactive); 2: 24.3 µM (inactive); 3: > 100 µM (inactive); 4: > 100 µM (inactive); 5: 34.7 µM (inactive); 6: 0.0227 µM (active); 7: > 100 µM (inactive); 8: > 100 µM (inactive)
